Each entry below carries its recorded MIC.
Tested on: AABA1060 (clinical isolate of Acinetobacter baumannii)
Assay: MIC broth microdilution, AABA1060
Format: cell-based
Settings: Acinetobacter baumannii, read-out: MIC AABA1060
Parameter Measured: MIC

                                   molecule  parameter_measured  reported_result
0  CC(C)(N)[C@H](NC(=O)c1ccc(C#CC#Cc2cncnc2)cc1)C(=O)NO [Example 89-6]                 MIC    2 to 16 µg/mL
1  CCCC#CC#Cc1ccc(C(=O)N[C@H](C(=O)NO)[C@@H](C)N)cc1 [Example 91-8]                 MIC    2 to 16 µg/mL
2  CC(C)(O)[C@H](NC(=O)c1ccc(C#Cc2ccc(CN3CCCOCC3)cc2)cc1)C(=O)NO [Example 122-8]                 MIC    2 to 16 µg/mL
3  CNC[C@H](NC(=O)c1ccc(C#C/C=C/c2ccc(CN3CCOCC3)cc2)cc1)C(=O)NO [Example 99-1]                 MIC   16 to 64 µg/mL
4  C[C@@H](N)[C@H](NC(=O)c1ccc(/C=C/C#Cc2ccccc2)cc1)C(=O)NO [Example 114-1]                 MIC        < 2 µg/mL
5  C[C@@H](N)[C@H](NC(=O)c1ccc(C#Cc2ccc(CCN)cc2)cc1)C(=O)NO [Example 137-4]                 MIC       > 64 µg/mL
6  C[C@@H](O)[C@H](NC(=O)c1ccc(C#Cc2ccncc2)cc1)C(=O)NO [Example 133-13]                 MIC   16 to 64 µg/mL
7  C[C@@H](N)[C@H](NC(=O)c1ccc(C#Cc2ccc(CNCC(C)(C)C)cc2)cc1)C(=O)NO [Example 118-4]                 MIC   16 to 64 µg/mL
